As a worked illustration, we turn to SFV replication % left (surviving fraction, remaining percentage of SFV replication) data collected for SFV-Rluc.
Quantity Measured: SFV replication % left (surviving fraction, remaining percentage of SFV replication) (%)

CCCCCCCCCCCCCCCC[N+](C)(C)C [Cetrimonium bromide]
75.0
Cc1cc(C(C)(C)C)c(O)c(C(C)(C)C)c1 [Butylated hydroxytoluene]
72.6
Oc1cc(O)c2c(c1)O[C@H](c1cc(O)c(O)c(O)c1)[C@H](O)C2 [(-)-Epigallocatechin]
101.9
Cl.Cl.OCCN1CCN(CCC=C2c3ccccc3Sc3ccc(Cl)cc32)CC1 [Clopenthixol dihydrochloride]
55.2

###

Tested on: SFV-Rluc
Settings: primary screening of chemical libraries; compounds tested at 50 µM
SFV replication % left values for the molecules below.
Quantity Measured: SFV replication % left (%)

COc1ccc(C(=O)Cc2c(CCN(C)C)cc3c(c2OC)OCO3)c(C(=O)O)c1OC
118.3
C#C[C@]1(O)CC[C@H]2[C@@H]3CCc4cc(O)ccc4[C@H]3CC[C@@]21C
11.7
CN(C)CCOC(c1ccccc1)c1ccccc1.Cl
41.0
C[C@H]1O[C@@H](O[C@H]2[C@@H](O)C[C@H](O[C@H]3[C@@H](O)C[C@H](O[C@H]4CC[C@@]5(C)[C@H](CC[C@@H]6[C@@H]5C[C@@H](O)[C@]5(C)[C@@H](C7=CC(=O)OC7)CC[C@]65O)C4)O[C@@H]3C)O[C@@H]2C)C[C@H](O)[C@@H]1O
141.9

###

Test system: SFV-Rluc
Where a name gives a salt, the structure may show the parent alone.
Lab note - cut at 70% for SFV replication % left (surviving fraction, remaining percentage of SFV replication): MET if strictly below, NOT MET if not.

O=c1oc2ccccc2c(O)c1Cc1c(O)c2ccccc2oc1=O [Dicumarol]
MET
COc1cnc(NS(=O)(=O)c2ccc(N)cc2)nc1 [Sulfameter]
NOT MET
CCNCC(O)c1ccc(O)cc1 (centres unmarked) [1-(4-Oxyphenyl)-1-oxy-2-ethylamonoethane]
NOT MET
Oc1cc(O)c2c(c1)O[C@H](c1ccc(O)c(O)c1)[C@H](O)C2 [(-)-Epicatechin]
NOT MET
COc1cc(/C=C/C(=O)O)cc(OC)c1O [Sinapic acid]
MET
CCC1(CC)C(=O)NC(=O)NC1=O [Barbital]
MET
Cc1nnc(NS(=O)(=O)c2ccc(N)cc2)s1 [PC-200]
NOT MET
CCN(CC)CCNC(=O)c1ccc(N)cc1 [Procainamide hydrochloride]
NOT MET
CCCCNc1ccc(C(=O)OCCN(C)C)cc1 [Cainopan, p-Butylaminobenzoyldimethylaminoethanol]
MET
CCN(CC)CCCC(C)Nc1ccnc2cc(Cl)ccc12 (centres unmarked) [Chloroquine]
MET
CCNCC(O)c1cccc(O)c1 (centres unmarked) [Etilefrin]
NOT MET
CCOC(=O)c1ccc(O)cc1 [Ethyl 4-hydroxybenzoate]
NOT MET
O=C(/C=C/c1ccc(O)c(O)c1)O[C@H](Cc1ccc(O)c(O)c1)C(=O)O [Rosmarinic acid]
NOT MET
COc1ccc2ccc(=O)oc2c1O [Daphnetin-7-methylether]
NOT MET
CC(O)Cn1cnc2c1c(=O)n(C)c(=O)n2C (stereo not drawn) [7-(β-Hydroxypropyl)theophylline]
NOT MET
O=C1NC(=O)C(c2ccccc2)(c2ccccc2)N1 [Diphenylhydantoin [phenytoin]]
MET
C#C[C@]1(O)CC[C@H]2[C@@H]3CCC4=CC(=O)CC[C@@H]4[C@H]3CC[C@@]21C [Norethindrone]
NOT MET
O=c1oc2cc(O)ccc2cc1-c1nc2ccccc2o1 [3-(2-Benzoxazolyl)umbelliferone]
MET
CC(CCc1ccccc1)NCC(O)c1ccc(O)c(C(N)=O)c1 (centres unmarked) [Labetalol hydrochloride]
NOT MET
